- Tested on: RAG2
- ASSAY_SUMMARY: Histone peptide microarray
- Type: binding, human
- MEASUREMENT_CONTEXT: RAG2, GST-tagged; arrays performed twice, n of 4
Where no end group is shown, it is not given here. [ ]: non-standard residue; d: D form. Arg(Me2a) = CN(C)C(=N)NCCC[C@H](N)C(=O)O; pS = N[C@@H](COP(=O)(O)O)C(=O)O
VALUE_TYPE: Array Heatmap value (peptide array binding signal)

substance="H2AS1p + K5ac: H2A 1-17 ([pS]GRGK(Ac)QGGKARAKAKTR; UniProt P0C0S8 2-18, looked up, fragment)" value=0.2266
substance="H2AS1p + R3me2a + K5ac: H2A 1-17 ([pS]G[Arg(Me2a)]GK(Ac)QGGKARAKAKTR; UniProt P0C0S8 2-18, looked up, fragment)" value=0.2825
substance="H2A.Z K4ac + K8ac + K12ac (1-19) (N-ac): H2AZ 1-19 (Ac-AGGKAGKDSGKAKTKAVSR; not fully specified (residue 4); UniProt P0C0S5 2-20, looked up, fragment)" value=0.271
substance="Myc-Tag: 1-10 (ILKKATAYIL; Myc epitope tag; UniProt P01106 410-419, looked up, fragment)" value=0.2496
